- Tested on: lambsquarters (Chenopodium album)
- Assay details: Test D pre-/postemergence: lambsquarters
- Type: in vivo
- Experimental context: Postemergence, 125 g ai/ha; scale 0 to 100, 0 no effect, 100 complete control
Plant response rating: Lambsquarters overview
Respond numerically, and do not add a unit to the figure.

Compound string	Experimental result
CCc1nn(-c2ccc(C(F)(F)F)cc2)nc1Cc1ccnc(C(F)(F)F)c1	95

# input Value wanted: Plant response rating: Lambsquarters (lambsquarters (Chenopodium album)) of entry COc1nn(-c2ccc(C(F)(F)F)cc2)nc1Cc1ccnc(C(F)F)c1
# output 95

# input Value wanted: Plant response rating: Lambsquarters (lambsquarters (Chenopodium album)) of entry Cc1nn(-c2ccc(F)c(C(F)(F)F)c2)nc1Cc1ccnc(C(F)(F)F)c1
# output 95

# input Value wanted: Plant response rating: Lambsquarters (lambsquarters (Chenopodium album)) of entry FC(F)(F)COc1nn(-c2ccc(C(F)(F)F)cc2)nc1Cc1ccnc(C(F)(F)F)c1
# output 100

* * *

- System: corn (Zea mays)
- Assay details: Test C pre-/postemergence: corn
- Assay type: in vivo
- Experimental context: Preemergence, 62 g ai/ha; scale of 0 to 100, 0 is no effect, 100 is complete control
Quantity kind: Plant response rating, Corn
Respond numerically, and do not add a unit to the figure.

Completed entries (count: 4):
Compound string	Tested on	Plant response rating, Corn
CCCc1nn(-c2ccc(F)c(F)c2)nc1Oc1ccnc(C(F)(F)F)c1	corn (Zea mays)	5
CCc1nn(-c2ccc(F)c(F)c2)nc1Oc1ccnc(C(F)(F)F)c1	corn (Zea mays)	0
CCCc1nn(-c2ccc(F)cc2)nc1Oc1ccnc(C(F)(F)F)c1	corn (Zea mays)	15
CCCc1nn(-c2ccc(F)cc2F)nc1Oc1ccnc(C(F)(F)F)c1	corn (Zea mays)	20

Now, please, on to the next compound.
# input Value wanted: Plant response rating, Corn (corn (Zea mays)) of entry CCc1nn(-c2ccc(C(F)(F)F)c(F)c2)nc1Oc1ccnc(C(F)(F)F)c1
# output 15

* * *

- Test system: corn (Zea mays)
- Assay details: Test A pre-/postemergence: corn
- Assay type: in vivo
- Experimental context: Postemergence, 125 g ai/ha; 0 to 100 scale, 0 is no effect, 100 is complete control
Corn plant response rating overview
Respond numerically, and do not add a unit to the figure.

Completed entries (count: 4):
Molecule	Quantity kind	Experimental result
Cc1nn(-c2ccc(F)cc2)nc1Cn1cc(C(F)(F)F)nc1Cl	Corn plant response rating	20
Cc1nn(-c2ccc(Br)cc2)nc1Oc1ccnc(C(F)(F)F)c1	Corn plant response rating	30
Cc1cnccc1Oc1nn(-c2ccc(F)cc2)nc1C	Corn plant response rating	0
Cc1nn(-c2ccc(F)cc2)nc1Oc1ccnc(C(F)(F)F)n1	Corn plant response rating	10

Now, please, on to the next molecule.
# input # Corn plant response rating lookup, item COc1nn(-c2ccc(C(F)(F)F)cc2)nc1C(F)c1ccnc(C(F)(F)F)c1 (centres unmarked)
# output 20

* * *

- Test system: velvetleaf (Abutilon theophrasti)
- Assay details: Test A pre-/postemergence: velvetleaf
- Type: in vivo
- Experimental context: Postemergence, 125 g ai/ha; 0 to 100 scale, 0 is no effect, 100 is complete control
Quantity kind: Velvetleaf plant response rating
Respond numerically, and do not add a unit to the figure.

Compound string	Experimental result
Cc1nn(-c2ccc(C(F)(F)F)cc2)nc1Oc1cncc(C(F)(F)F)c1	20
Cc1nn(-c2ccc(C(F)(F)F)cc2)nc1Oc1cccc(Cl)c1	10
COc1cc(Cc2nn(-c3ccc(C(F)(F)F)cc3)nc2C)ccn1	10
Cc1nn(-c2ccc(C(F)(F)F)cc2)nc1Oc1ccnc(OC(F)F)c1	30

# input # Velvetleaf plant response rating lookup, item COc1nn(-c2ccc(C(F)(F)F)cc2)nc1Cn1nc(C(F)(F)F)cc1C(F)(F)F
# output 0

* * *

Plant response rating, Velvetleaf overview
- System: velvetleaf (Abutilon theophrasti)
- Assay details: Test A pre-/postemergence: velvetleaf
- Type: in vivo
- Experimental context: Postemergence, 125 g ai/ha; 0 to 100 scale, 0 is no effect, 100 is complete control
Respond numerically, and do not add a unit to the figure.

Compound string	Plant response rating, Velvetleaf
COc1nn(-c2cccc(F)c2)nc1Cc1ccnc(C(F)(F)F)c1	90
CC(C)COc1nn(-c2ccc(C(F)(F)F)cc2)nc1Cc1ccnc(C(F)(F)F)c1	30
CCc1nn(-c2ccc(F)cc2F)nc1Oc1ccnc(C(F)F)c1	30
CCCc1nn(-c2ccc(F)cc2F)nc1Oc1ccnc(C(F)(F)F)c1	90
FC(F)(F)c1cccc(-n2nc(Oc3ccnc(C(F)(F)F)c3)c(C3CC3)n2)c1	10

# input Value wanted: Plant response rating, Velvetleaf (velvetleaf (Abutilon theophrasti)) of entry CCCc1nn(-c2ccc(F)c(F)c2)nc1Oc1ccnc(C(F)(F)F)c1
# output 90

# input Value wanted: Plant response rating, Velvetleaf (velvetleaf (Abutilon theophrasti)) of entry Cc1nn(-c2ccc(F)cc2)nc1Cc1cccc(C(F)(F)F)c1
# output 40

# input Value wanted: Plant response rating, Velvetleaf (velvetleaf (Abutilon theophrasti)) of entry CCc1nn(-c2ccc(F)c(C(F)(F)F)c2)nc1Oc1ccnc(C(F)(F)F)c1
# output 70

# input Value wanted: Plant response rating, Velvetleaf (velvetleaf (Abutilon theophrasti)) of entry Cc1nn(-c2ccnc(Cl)c2)nc1Cc1ccnc(C(F)(F)F)c1
# output 70

# input Value wanted: Plant response rating, Velvetleaf (velvetleaf (Abutilon theophrasti)) of entry CCCOc1nn(-c2ccc(C(F)(F)F)cc2)nc1Cc1ccnc(C(F)(F)F)c1
# output 80

# input Value wanted: Plant response rating, Velvetleaf (velvetleaf (Abutilon theophrasti)) of entry Cc1cc(Oc2nn(-c3ccc(F)cc3)nc2C)ccn1
# output 10

* * *

- Tested on: ducksalad (Heteranthera limosa)
- Assay details: Test C flooded paddy test: ducksalad
- Type: in vivo
- Experimental context: Flood, 31 g ai/ha; scale 0 to 100 (0 no effect, 100 complete control)
Quantity kind: Plant response rating, Ducksalad
Respond numerically, and do not add a unit to the figure.

# input # Plant response rating, Ducksalad lookup, item Cc1nn(-c2ccc(C(F)(F)F)cn2)nc1Cn1cnc(C(F)(F)F)n1 [Compound 8]
# output 0

# input # Plant response rating, Ducksalad lookup, item Cc1nn(-c2ccc(F)cc2)nc1Oc1ccnc(C(F)(F)F)n1 [Compound 101]
# output 0

* * *

- Tested on: johnsongrass (Sorghum halepense)
- Assay details: Test C pre-/postemergence: johnsongrass
- Type: in vivo
- Experimental context: Postemergence, 125 g ai/ha; scale 0 to 100, 0 no effect, 100 complete control
- From the text: […] Treated plants and controls were maintained in a greenhouse for 13 to 15 days, after which time all species were compared to controls and visually evaluated. […]
If the reported Plant response rating, Johnsongrass equals or exceeds 50, assign TRUE. If not, assign FALSE.

Solved entries (count: 4):
Compound string	Classification
Cc1nn(-c2ccc(F)c(C(F)(F)F)c2)nc1Cc1ccnc(C(F)(F)F)c1	TRUE
Cc1nn(-c2ccc(C(F)(F)F)cn2)nc1Cc1cccc(C(F)(F)F)c1	FALSE
CCOc1nn(-c2ccc(Cl)cc2)nc1Cc1ccnc(C(F)(F)F)c1	TRUE
CCCc1nn(-c2ccc(F)cc2F)nc1Oc1ccnc(C(F)(F)F)c1	FALSE

# input hey, is Plant response rating, Johnsongrass for this one >= 50? Cc1nn(-c2ccnc(Cl)c2)nc1Cc1ccnc(C(F)(F)F)c1
# output FALSE

* * *

Plant response rating, Lambsquarters overview
- System: lambsquarters (Chenopodium album)
- Assay details: Test C pre-/postemergence: lambsquarters
- Type: in vivo
- Experimental context: Preemergence, 125 g ai/ha; scale 0 to 100, 0 no effect, 100 complete control
Respond numerically, and do not add a unit to the figure.

Compound string	Tested on	Plant response rating, Lambsquarters
FC(F)Oc1nn(-c2ccc(C(F)(F)F)cc2)nc1Cc1ccnc(C(F)(F)F)c1	lambsquarters (Chenopodium album)	98
Cc1nn(-c2ccc(C(F)(F)F)cn2)nc1Cc1cccc(C(F)(F)F)c1	lambsquarters (Chenopodium album)	100
COc1nn(-c2cccc(F)c2)nc1Cc1ccnc(C(F)(F)F)c1	lambsquarters (Chenopodium album)	85
CCOc1nn(-c2ccc(F)cc2)nc1Cc1ccnc(C(F)(F)F)c1	lambsquarters (Chenopodium album)	95
CCCc1nn(-c2ccc(F)cc2F)nc1Oc1ccnc(C(F)(F)F)c1	lambsquarters (Chenopodium album)	98

Now, please, on to the next molecule.
# input # Plant response rating, Lambsquarters lookup, item CCc1nn(-c2ccc(C(F)(F)F)cc2)nc1Oc1ccnc(C(F)(F)F)c1
# output 90

* * *

Pigweed plant response rating overview
- System: pigweed (Amaranthus retroflexus)
- Assay details: Test A pre-/postemergence: pigweed
- Type: in vivo
- Experimental context: Postemergence, 125 g ai/ha; 0 to 100 scale, 0 is no effect, 100 is complete control
Respond numerically, and do not add a unit to the figure.

Compound string	Tested on	Pigweed plant response rating
Cc1nn(-c2ccc(F)cc2)nc1Oc1cccc(C(F)(F)F)c1	pigweed (Amaranthus retroflexus)	100

# input # Pigweed plant response rating lookup, item Cc1nn(-c2ccc(F)cc2)nc1Oc1nccc(C(F)(F)F)n1
# output 10

# input # Pigweed plant response rating lookup, item Cc1nn(-c2ccnc(C(F)(F)F)c2)nc1C(=O)c1cccc(C(F)(F)F)c1
# output 80

# input # Pigweed plant response rating lookup, item Cc1nn(-c2ccc(F)cc2)nc1Cn1c(Cl)nc(C(F)(F)F)c1Cl
# output 0

# input # Pigweed plant response rating lookup, item Cc1nn(-c2ccc(F)c(F)c2)nc1Cc1ccnc(C(F)(F)F)c1
# output 100
